Molecular target: p-AXL (Homo sapiens, UniProt P30530)
Sequence (P30530 26-894): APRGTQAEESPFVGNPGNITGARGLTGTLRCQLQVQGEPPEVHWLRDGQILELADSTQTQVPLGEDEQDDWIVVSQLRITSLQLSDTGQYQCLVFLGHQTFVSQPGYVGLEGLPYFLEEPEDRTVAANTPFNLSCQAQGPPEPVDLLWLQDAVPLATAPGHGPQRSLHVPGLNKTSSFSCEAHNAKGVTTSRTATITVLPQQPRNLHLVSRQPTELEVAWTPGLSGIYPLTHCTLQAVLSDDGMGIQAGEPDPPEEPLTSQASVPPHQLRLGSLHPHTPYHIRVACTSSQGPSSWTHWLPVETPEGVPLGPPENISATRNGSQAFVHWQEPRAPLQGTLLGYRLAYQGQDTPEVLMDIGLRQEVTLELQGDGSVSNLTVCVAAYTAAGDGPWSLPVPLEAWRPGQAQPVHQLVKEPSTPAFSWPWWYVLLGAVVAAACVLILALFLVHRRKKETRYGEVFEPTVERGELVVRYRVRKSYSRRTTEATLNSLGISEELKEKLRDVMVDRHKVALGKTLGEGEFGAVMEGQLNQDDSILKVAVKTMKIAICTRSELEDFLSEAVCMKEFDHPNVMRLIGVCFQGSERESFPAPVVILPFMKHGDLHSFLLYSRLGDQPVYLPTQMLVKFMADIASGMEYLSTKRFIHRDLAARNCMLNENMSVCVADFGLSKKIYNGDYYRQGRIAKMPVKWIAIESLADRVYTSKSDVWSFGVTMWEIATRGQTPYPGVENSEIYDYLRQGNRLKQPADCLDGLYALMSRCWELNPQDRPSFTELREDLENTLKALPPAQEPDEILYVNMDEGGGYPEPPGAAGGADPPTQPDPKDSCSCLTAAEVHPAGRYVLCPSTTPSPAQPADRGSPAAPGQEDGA
Test: Axl phosphorylation inhibition ELISA in HEK293T cells transfected with NanoLuc-tagged AXL
Conditions: 1 h compound incubation, media (OptiMEM)
Hi there, I'd appreciate the recorded IC50 for every entry that follows.

// worked examples, IC50 included
>  <COMPOUND>
c1cc2c(c(-c3ccc(-c4c[nH]c5ncc(-c6ccc7c(c6)CC[C@@H](N6C8COCC6C8)CC7)cc45)cc3)n1)OCCO2 [Example 194]

>  <READING>
< 100 nM

$$$$
>  <COMPOUND>
CC(C)(O)c1ccccc1-c1ccc(-c2n[nH]c3ncc(-c4ccc5c(c4)CC[C@@H](N4C6COCC4C6)CC5)cc23)cn1 [Example 113]

>  <READING>
< 100 nM

$$$$

Now look at this entry.
// lookup IC50 | system=p-AXL (Homo sapiens, UniProt P30530) | key= C[C@@H]1CCCN1[C@@]1(C)CCc2ccc(-c3cnc4[nH]nc(-c5ccc(-c6ncco6)cc5)c4c3)cc2CC1 [Example 90]
< 100 nM

* * *

Molecular target: Axl (Homo sapiens)
Experiment: Biochemical potency, HTRF KinEASE-TK kinase assay
Design: purchased Invitrogen
Settings: 5 nM AXL, 700 μM ATP
REPORTED_METRIC: IC50

>  <COMPOUND>
Cc1cnc(-c2ccc(-c3c[nH]c4ncc(-c5ccc6c(c5)CC[C@@H](N5CCCC5)CC6)cc34)cc2)c(C)n1

>  <IC50>
< 100 nM

$$$$
>  <COMPOUND>
CN(C)S(=O)(=O)c1cccnc1-c1ccc(-c2c[nH]c3ncc(-c4ccc5c(c4)CC[C@@H](N4C6COCC4C6)CC5)cc23)cc1

>  <IC50>
< 100 nM

$$$$

Quick batch: IC50 for everything below.
1. Cc1nccnc1-c1ccc(-c2c[nH]c3ncc(-c4ccc5c(c4)CC[C@@H](N4C6COCC4C6)CC5)cc23)nc1
2. Cc1ccccc1-c1ccc(-c2c[nH]c3ncc(-c4ccc5c(c4)CC[C@@H](N4C6COCC4C6)CC5)cc23)nc1
3. CC(C)(O)c1ccccc1-c1ccc(-c2c[nH]c3ncc(-c4ccc5c(c4)CC[C@@H](N4C6COCC4C6)CC5)cc23)cn1
4. Cc1cnc(-c2ccc(-c3n[nH]c4ncc(-c5ccc6c(c5)CC[C@@](C)(N5CCC[C@H]5C)CC6)cc34)cc2)c(C)n1
5. Cc1cc(C)c(-c2ccc(-c3c[nH]c4ncc(-c5ccc6c(c5)CC[C@@H](N5C7COCC5C7)CC6)cc34)cc2)nn1
6. Cc1cccnc1-c1ccc(-c2n[nH]c3ncc(-c4ccc5c(c4)CCC(N4CCCC4)C5)cc23)cc1 (stereo not shown)
7. c1cc2c(c(-c3ccc(-c4c[nH]c5ncc(-c6ccc7c(c6)CC[C@@H](N6C8COCC6C8)CC7)cc45)cc3)n1)OCCO2
8. c1cnc(-c2ccc(-c3c[nH]c4ncc(-c5ccc6c(c5)CC[C@@H](N5C7COCC5C7)CC6)cc34)cc2)c(N2CCOCC2)c1

["< 100 nM", "< 100 nM", "< 100 nM", "< 100 nM", "< 100 nM", "< 100 nM", "< 100 nM", "< 100 nM"]

Quick batch: IC50 for everything below.
1. COc1cccc(-c2ccc(-c3n[nH]c4ncc(-c5ccc6c(c5)CC[C@@H](N5C7COCC5C7)CC6)cc34)cc2)n1
2. Cc1ncc(C)c(-c2ccc(-c3n[nH]c4ncc(-c5ccc6c(c5)CC[C@@H](N5C7COCC5C7)CC6)cc34)cc2)n1
3. Cc1cc(F)cnc1-c1ccc(-c2c[nH]c3ncc(-c4ccc5c(c4)CC[C@@H](N4C6COCC4C6)CC5)cc23)cc1

1: < 100 nM; 2: < 100 nM; 3: < 100 nM
